- experiment: activity coefficient (dimensionless); of the first substance listed, at infinite dilution; xn = mol fraction of the nth substance listed
- condition: 348.15 K; 101 kPa; Liquid; Chromatography; x1 = 0
Mark TRUE for reported activity coefficient of 20 or greater; mark FALSE for anything smaller.

                                    compound    cat
 0  C=Cc1ccccc1 [styrene] + C[N+]1(CCCO)CCOCC1.O=S(=O)([N-]S(=O)(=O)C(F)(F)F)C(F)(F)F  FALSE
 1  CCC(=O)CC [pentan-3-one] + C[N+]1(CCCO)CCOCC1.O=S(=O)([N-]S(=O)(=O)C(F)(F)F)C(F)(F)F  FALSE
 2  C=CCCCCC [1-heptene] + C[N+]1(CCCO)CCOCC1.O=S(=O)([N-]S(=O)(=O)C(F)(F)F)C(F)(F)F   TRUE
 3  COC(C)=O [methyl ethanoate] + C[N+]1(CCCO)CCOCC1.O=S(=O)([N-]S(=O)(=O)C(F)(F)F)C(F)(F)F  FALSE
 4  CCC(C)O (stereo unspecified) [butan-2-ol] + C[N+]1(CCCO)CCOCC1.O=S(=O)([N-]S(=O)(=O)C(F)(F)F)C(F)(F)F  FALSE
 5  C=CCCCC [hex-1-ene] + C[N+]1(CCCO)CCOCC1.O=S(=O)([N-]S(=O)(=O)C(F)(F)F)C(F)(F)F   TRUE
 6  CCCC(C)=O [pentan-2-one] + C[N+]1(CCCO)CCOCC1.O=S(=O)([N-]S(=O)(=O)C(F)(F)F)C(F)(F)F  FALSE
 7  Cc1ccc(C)cc1 [1,4-dimethylbenzene] + C[N+]1(CCCO)CCOCC1.O=S(=O)([N-]S(=O)(=O)C(F)(F)F)C(F)(F)F  FALSE
 8  C1CCOC1 [tetrahydrofuran] + C[N+]1(CCCO)CCOCC1.O=S(=O)([N-]S(=O)(=O)C(F)(F)F)C(F)(F)F  FALSE
 9  C1CCCC1 [cyclopentane] + C[N+]1(CCCO)CCOCC1.O=S(=O)([N-]S(=O)(=O)C(F)(F)F)C(F)(F)F   TRUE
10  C#CCCCCC [1-heptyne] + C[N+]1(CCCO)CCOCC1.O=S(=O)([N-]S(=O)(=O)C(F)(F)F)C(F)(F)F  FALSE
11  CC(C)O [propan-2-ol] + C[N+]1(CCCO)CCOCC1.O=S(=O)([N-]S(=O)(=O)C(F)(F)F)C(F)(F)F  FALSE
12  CC(C)CC(C)(C)C [2,2,4-trimethylpentane] + C[N+]1(CCCO)CCOCC1.O=S(=O)([N-]S(=O)(=O)C(F)(F)F)C(F)(F)F   TRUE
13  CO [methanol] + C[N+]1(CCCO)CCOCC1.O=S(=O)([N-]S(=O)(=O)C(F)(F)F)C(F)(F)F  FALSE
14  CCCOCCC [dipropyl ether] + C[N+]1(CCCO)CCOCC1.O=S(=O)([N-]S(=O)(=O)C(F)(F)F)C(F)(F)F  FALSE
15  CCC(=O)OC [methyl propanoate] + C[N+]1(CCCO)CCOCC1.O=S(=O)([N-]S(=O)(=O)C(F)(F)F)C(F)(F)F  FALSE
16  CCC(C)(C)OC [2-methoxy-2-methylbutane] + C[N+]1(CCCO)CCOCC1.O=S(=O)([N-]S(=O)(=O)C(F)(F)F)C(F)(F)F  FALSE
17  C1COCCO1 [1,4-dioxane] + C[N+]1(CCCO)CCOCC1.O=S(=O)([N-]S(=O)(=O)C(F)(F)F)C(F)(F)F  FALSE
18  Cc1ccccc1 [toluene] + C[N+]1(CCCO)CCOCC1.O=S(=O)([N-]S(=O)(=O)C(F)(F)F)C(F)(F)F  FALSE
19  C=C(C)c1ccccc1 [(1-methylethenyl)benzene] + C[N+]1(CCCO)CCOCC1.O=S(=O)([N-]S(=O)(=O)C(F)(F)F)C(F)(F)F  FALSE
20  C1CCCCCCC1 [cyclooctane] + C[N+]1(CCCO)CCOCC1.O=S(=O)([N-]S(=O)(=O)C(F)(F)F)C(F)(F)F   TRUE
21  CCC[N+](=O)[O-] [1-nitropropane] + C[N+]1(CCCO)CCOCC1.O=S(=O)([N-]S(=O)(=O)C(F)(F)F)C(F)(F)F  FALSE
22  C=CCCCCCCCC [1-decene] + C[N+]1(CCCO)CCOCC1.O=S(=O)([N-]S(=O)(=O)C(F)(F)F)C(F)(F)F   TRUE
23  CCCCCCC [heptane] + C[N+]1(CCCO)CCOCC1.O=S(=O)([N-]S(=O)(=O)C(F)(F)F)C(F)(F)F   TRUE
24  Cc1ccccc1C [1,2-dimethylbenzene] + C[N+]1(CCCO)CCOCC1.O=S(=O)([N-]S(=O)(=O)C(F)(F)F)C(F)(F)F  FALSE
25  C=COC(C)=O [vinyl acetate] + C[N+]1(CCCO)CCOCC1.O=S(=O)([N-]S(=O)(=O)C(F)(F)F)C(F)(F)F  FALSE

###

- experiment: activity coefficient (dimensionless); of the first substance listed, at infinite dilution; xn = mol fraction of the nth substance listed
- condition: 358.15 K; 101 kPa; Liquid; Chromatography; x1 = 0
measurement_kind: activity coefficient

>>> print(df.to_string())
                                   compound  recorded_measurement
0  CCC(=O)OC [methyl propanoate] + C[N+]1(CCCO)CCOCC1.O=S(=O)([N-]S(=O)(=O)C(F)(F)F)C(F)(F)F                  1.68
1  CO [methanol] + C[N+]1(CCCO)CCOCC1.O=S(=O)([N-]S(=O)(=O)C(F)(F)F)C(F)(F)F                 0.884
2  CC(C)(C)O [2-methylpropan-2-ol] + C[N+]1(CCCO)CCOCC1.O=S(=O)([N-]S(=O)(=O)C(F)(F)F)C(F)(F)F                  1.97

###

- experiment: activity coefficient (dimensionless); of the first substance listed, at infinite dilution; xn = mol fraction of the nth substance listed
- condition: 368.15 K; 101 kPa; Liquid; Chromatography; x1 = 0
measurement_kind: activity coefficient

                                    molecule  recorded_measurement
 0  CCCCCCCCC [nonane] + C[N+]1(CCCO)CCOCC1.O=S(=O)([N-]S(=O)(=O)C(F)(F)F)C(F)(F)F                   224
 1  C#CCCC [1-pentyne] + C[N+]1(CCCO)CCOCC1.O=S(=O)([N-]S(=O)(=O)C(F)(F)F)C(F)(F)F                  6.63
 2  C1CCCCCC1 [cycloheptane] + C[N+]1(CCCO)CCOCC1.O=S(=O)([N-]S(=O)(=O)C(F)(F)F)C(F)(F)F                    43
 3  CCC(=O)OC [methyl propanoate] + C[N+]1(CCCO)CCOCC1.O=S(=O)([N-]S(=O)(=O)C(F)(F)F)C(F)(F)F                  1.74
 4  C=CCCCCCCCC [1-decene] + C[N+]1(CCCO)CCOCC1.O=S(=O)([N-]S(=O)(=O)C(F)(F)F)C(F)(F)F                   176
 5  Cc1ccccc1C [1,2-dimethylbenzene] + C[N+]1(CCCO)CCOCC1.O=S(=O)([N-]S(=O)(=O)C(F)(F)F)C(F)(F)F                  5.86
 6  CCCOCCC [dipropyl ether] + C[N+]1(CCCO)CCOCC1.O=S(=O)([N-]S(=O)(=O)C(F)(F)F)C(F)(F)F                  17.4
 7  C1CCCC1 [cyclopentane] + C[N+]1(CCCO)CCOCC1.O=S(=O)([N-]S(=O)(=O)C(F)(F)F)C(F)(F)F                  21.4
 8  CCCCO [butan-1-ol] + C[N+]1(CCCO)CCOCC1.O=S(=O)([N-]S(=O)(=O)C(F)(F)F)C(F)(F)F                  2.64
 9  CCC[N+](=O)[O-] [1-nitropropane] + C[N+]1(CCCO)CCOCC1.O=S(=O)([N-]S(=O)(=O)C(F)(F)F)C(F)(F)F                  1.34
10  CCCCCCCCCC [decane] + C[N+]1(CCCO)CCOCC1.O=S(=O)([N-]S(=O)(=O)C(F)(F)F)C(F)(F)F                   328
11  CCCC(=O)OC [methyl butanoate] + C[N+]1(CCCO)CCOCC1.O=S(=O)([N-]S(=O)(=O)C(F)(F)F)C(F)(F)F                  2.75
